measurementTarget: FAK (Homo sapiens, UniProt Q05397)
Construct: homozygous knock-in of a HiBiT tag (Promega Corporation, Madison, WI) to the C-terminus of the FAK gene in its natural genomic locus; endogenous in cells; host or cells: JHH-4-FAK-HiBiT clone d01 (CRISPR-Cas9 knock-in at the endogenous locus)
Sequence (Q05397 whole entry): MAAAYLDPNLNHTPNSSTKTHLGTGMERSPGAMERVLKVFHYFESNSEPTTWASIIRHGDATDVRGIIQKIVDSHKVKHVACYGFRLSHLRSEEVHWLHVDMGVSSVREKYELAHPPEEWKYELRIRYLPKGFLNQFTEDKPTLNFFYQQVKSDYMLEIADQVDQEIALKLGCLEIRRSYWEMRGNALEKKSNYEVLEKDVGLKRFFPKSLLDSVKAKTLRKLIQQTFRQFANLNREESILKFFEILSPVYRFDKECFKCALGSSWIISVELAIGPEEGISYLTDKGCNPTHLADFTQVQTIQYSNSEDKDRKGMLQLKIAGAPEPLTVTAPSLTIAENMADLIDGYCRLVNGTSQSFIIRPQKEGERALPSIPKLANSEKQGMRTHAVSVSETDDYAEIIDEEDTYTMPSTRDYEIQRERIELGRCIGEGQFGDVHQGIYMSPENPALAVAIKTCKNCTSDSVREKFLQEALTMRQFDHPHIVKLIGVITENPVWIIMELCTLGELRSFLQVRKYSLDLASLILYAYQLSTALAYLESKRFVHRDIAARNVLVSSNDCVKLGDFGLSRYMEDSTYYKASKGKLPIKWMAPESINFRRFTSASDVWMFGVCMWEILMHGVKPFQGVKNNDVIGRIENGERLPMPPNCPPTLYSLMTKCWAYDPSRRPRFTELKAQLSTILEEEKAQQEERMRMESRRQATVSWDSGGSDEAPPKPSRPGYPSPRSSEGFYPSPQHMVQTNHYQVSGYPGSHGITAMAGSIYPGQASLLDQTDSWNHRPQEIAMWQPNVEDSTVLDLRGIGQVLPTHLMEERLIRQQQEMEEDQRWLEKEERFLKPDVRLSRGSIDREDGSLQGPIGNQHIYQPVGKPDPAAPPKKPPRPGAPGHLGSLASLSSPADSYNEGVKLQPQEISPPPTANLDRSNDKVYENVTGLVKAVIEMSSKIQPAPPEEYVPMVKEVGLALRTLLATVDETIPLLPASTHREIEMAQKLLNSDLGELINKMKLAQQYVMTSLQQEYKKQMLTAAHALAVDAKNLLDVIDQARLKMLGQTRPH
methodSummary: FAK-HiBiT Degradation Assay
Assay type: cell-based
assayConditions: JHH-4-FAK-HiBiT clone d01 cells; two hours incubation; 10-point dose response, 3-fold dilution starting at 1 μM; Nano-Glo HiBiT luminescence; read-out: FAK HiBiT EC50
valueType: DC50 (nM)

Please review the entries below; each comes with its answer.
{"compound": "CN(C)c1cc(-c2ccc(C#N)cc2Cl)c2ncn(Cc3ccc4c(c3)CN(C3CCC(=O)NC3=O)C4=O)c2n1 (stereo not shown) [Example 18]", "DC50 (nM)": 8.37}
{"compound": "O=C1CC[C@H](N2Cc3cc(Cn4ncc5c(-c6ncc(Cl)cc6F)cc(N6CC[C@H](O)C6)nc54)ccc3C2=O)C(=O)N1 [Example 141]", "DC50 (nM)": 9}

P. O=C1CCC(N2Cc3cc(Cn4cnc5c(-c6ncc(F)cc6Cl)cc(N6CC(F)C6)nc54)ccc3C2=O)C(=O)N1 (stereo not shown) [Example 25]
Q. N#Cc1ccc(-c2cc(N3CCC3)nc3c2c(Cl)nn3Cc2ccc3c(c2)CN(C2CCC(=O)NC2=O)C3=O)c(Cl)c1 (stereo not shown) [Example 70]
R. CN(c1cc(-c2ncc(F)cc2Cl)c2cnn(Cc3ccc4c(c3)CN(C3CCC(=O)NC3=O)C4=O)c2n1)C(F)(F)F (stereo not shown) [Example 53]
S. O=C1CCC(N2Cc3c(ccc(Cn4ncc5c(-c6ncc(C(F)(F)F)cc6Cl)cc(N6CC(F)C6)nc54)c3F)C2=O)C(=O)N1 (stereo not shown) [Example 40]
T. O=C1CCC(N2Cc3cc(Cn4ncc5c(-c6ncc(C7CC7)cc6F)cc(N6CC(F)C6)nc54)ccc3C2=O)C(=O)N1 (stereo not shown) [Example 86]
Task: Please give the order of these compounds when sorted by DC50, largest value leading. Use the labels to give the ranking in the order requested.
Output: P, T, Q, R, S
(P: 21.1 nM, T: 12.5 nM, Q: 5.6 nM, R: 2.45 nM, S: 1.15 nM)

a. N#Cc1ccc(-c2c(F)c(N3CC(F)C3)nc3c2cnn3Cc2ccc3c(c2)CN([C@H]2CCC(=O)NC2=O)C3=O)nc1 [Example 75]
b. C[C@]1(O)CCN(c2cc(-c3ncc(C(F)(F)F)cc3Cl)c3cnn(Cc4ccc5c(c4)CN([C@H]4CCC(=O)NC4=O)C5=O)c3n2)C1 [Example 102]
Task: Compare a and b and name the one whose reported DC50 is smaller. Identify your pick by its label.
Output: a
(a: 7.95 nM, b: 29.6 nM)

P. O=C1CC[C@H](N2Cc3nc(Cn4ncc5c(-c6ncc(C(F)(F)F)cc6Cl)cc(N6CC(F)C6)nc54)ccc3C2=O)C(=O)N1 [Example 76]
Q. CN(c1cc(-c2ncc(C(F)(F)F)cc2Cl)c2cnn(Cc3ccc4c(c3)CN([C@H]3CCC(=O)NC3=O)C4=O)c2n1)C1COC1 [Example 99]
Task: Of P and Q , which shows the smaller DC50 value? Reply with the label of the item you choose.
Output: P

----------
measurementTarget: FAK (Homo sapiens)
Construct: homozygous knock-in of a HiBiT tag (Promega Corporation, Madison, WI) to the C-terminus of the FAK gene in its natural genomic locus; endogenous in cells; host or cells: JHH-4-FAK-HiBiT clone d01 (CRISPR-Cas9 knock-in at the endogenous locus)
methodSummary: FAK-HiBiT Degradation Assay
Type: cell-based
assayConditions: lower limit of the four parameter fit (value A); Ymax derived using DMSO control; JHH-4-FAK-HiBiT cells, two hours
valueType: FAK HiBiT Ymin

{"compound": "Cc1cc(C(F)(F)F)ccc1-c1cc(N2CC[C@H](O)C2)nc2c1cnn2Cc1ccc2c(c1)CN([C@H]1CCC(=O)NC1=O)C2=O", "assayResult": 8.81}
{"compound": "O=C1CC[C@H](N2Cc3cc(Cn4ncc5c(-c6ccc(F)cc6F)cc(N6CC(F)C6)nc54)ccc3C2=O)C(=O)N1", "assayResult": 7.40}
{"compound": "O=C1CCC(N2Cc3cc(Cn4ncc5c(-c6ncc(C(F)F)cc6Cl)cc(N6CC(F)C6)nc54)ccc3C2=O)C(=O)N1 (centres unmarked)", "assayResult": 6.11}

a. Cc1cc(Cl)cnc1-c1cc(N2CC(F)C2)nc2c1cnn2Cc1ccc2c(c1)CN([C@H]1CCC(=O)NC1=O)C2=O
b. O=C1CC[C@H](N2Cc3cc(Cn4ncc5c(-c6ncc(F)cc6Cl)cc(N6CC(F)C6)nc54)ccc3C2=O)C(=O)N1
Task: // pick larger FAK HiBiT Ymin from pair: a vs b Select an item and report its label.
Output: b
(b: 10.32, a: 5.82)

----------
measurementTarget: FAK (Homo sapiens)
Construct: homozygous knock-in of a HiBiT tag (Promega Corporation, Madison, WI) to the C-terminus of the FAK gene in its natural genomic locus; endogenous in cells; host or cells: JHH-4-FAK-HiBiT clone d01 (CRISPR-Cas9 knock-in at the endogenous locus)
methodSummary: FAK-HiBiT Degradation Assay
Assay type: cell-based
assayConditions: lower limit of the four parameter fit (value A); Ymax derived using DMSO control; JHH-4-FAK-HiBiT cells, two hours
valueType: FAK HiBiT Ymin

Use these answered entries as a reference point.
{"compound": "COc1cc(F)cnc1-c1cc(N2CC(F)C2)nc2c1cnn2Cc1ccc2c(c1)CN(C1CCC(=O)NC1=O)C2=O (stereo not drawn) [Example 130]", "FAK HiBiT Ymin": 84.84}
{"compound": "CC(C)Nc1cc(-c2ncc(C#N)cc2Cl)c2cnn(Cc3ccc4c(c3)CN(C3CCC(=O)NC3=O)C4=O)c2n1 (stereo not drawn) [Example 103]", "FAK HiBiT Ymin": 13.98}
{"compound": "O=C1CC[C@H](N2Cc3cc(Cn4ncc5c(-c6ncc(C(F)(F)F)cc6Cl)cc(N6CC(F)C6)nc54)cnc3C2=O)C(=O)N1 [Example 77]", "FAK HiBiT Ymin": 8.29}
{"compound": "CCOc1cnc(-c2cc(N3CC(F)C3)nc3c2cnn3Cc2ccc3c(c2)CN(C2CCC(=O)NC2=O)C3=O)c(C#N)c1 (stereo not drawn) [Example 46]", "FAK HiBiT Ymin": 8.57}

1. CN(C)c1cc(-c2ncc(C(F)(F)F)cc2Cl)c2cnn(Cc3ccc4c(c3)CN(C3CCC(=O)NC3=O)C4=O)c2n1 (stereo not drawn) [Example 5]
2. O=C1CC[C@@H](N2Cc3c(ccc(Cn4ncc5c(-c6ncc(F)cc6Cl)cc(N6CC(F)C6)nc54)c3F)C2=O)C(=O)N1 (single isomer, unassigned) [Example 109]
Task: Could you determine which record has the numerically smaller FAK HiBiT Ymin? Candidates: 1 and 2 Write down the label of the entry you select.
Output: 1
(1: 6.93, 2: 11.09)

----------
CAL-51 Prolif Ymin values for the compounds below.
Tested on: CAL-51 cells
methodSummary: CAL-51 Cell Proliferation Assay
Format: cell-based
assayConditions: minimal percent of DMSO control observed in the concentrations tested (Ymin-obs), 120 hours
Just the number, please.

In the examples that follow, each entry is paired with its recorded CAL-51 Prolif Ymin.
{"compound": "O=C1CCC(N2Cc3cc(Cn4ccc5c(-c6ncc(C(F)(F)F)cc6Cl)cc(N6CC(F)C6)nc54)ccc3C2=O)C(=O)N1 (stereo not shown) [Example 15]", "CAL-51 Prolif Ymin": 29.00}
{"compound": "O=C1CC[C@H](N2Cc3cc(Cn4ncc5c(-c6ncc(C(F)(F)F)cc6Cl)c(Cl)c(N6CC(F)C6)nc54)ccc3C2=O)C(=O)N1 [Example 2]", "CAL-51 Prolif Ymin": 14.10}
{"compound": "Cc1cnc(-c2cc(N3CC(F)C3)nc3c2cnn3Cc2ccc3c(c2)CN(C2CCC(=O)NC2=O)C3=O)c(Cl)c1 (stereo not shown) [Example 57]", "CAL-51 Prolif Ymin": 25.51}
{"compound": "Cc1nc2c(-c3ccc(F)cc3F)cc(N3CC(F)C3)nc2n1Cc1ccc2c(c1)CN(C1CCC(=O)NC1=O)C2=O (stereo not shown) [Example 23]", "CAL-51 Prolif Ymin": 20.44}
{"compound": "CN(C)c1cc(-c2ccc(C#N)cc2Cl)c2cnn(Cc3ccc4c(c3)CN(C3CCC(=O)NC3=O)C4=O)c2n1 (stereo not shown) [Example 12]", "CAL-51 Prolif Ymin": 23.97}

Task: Field: CAL-51 Prolif Ymin (CAL-51 cells). Entry: C[C@]1(O)CCN(c2cc(-c3ccc(C#N)cc3F)c3cnn(Cc4ccc5c(c4)CN(C4CCC(=O)NC4=O)C5=O)c3n2)C1 (stereo partly shown) [Example 115]
Output: 59.97

Task: Param readout= CAL-51 Prolif Ymin; system= CAL-51 cells; entry= O=C1CCC(N2Cc3cc(Cn4ncc5c(-c6ncc(C(F)(F)F)cc6Cl)cc(N6CCCC6)nc54)ccc3C2=O)C(=O)N1 (stereo not shown) [Example 11] ; returns value.
Output: 22.89

Task: Any idea what CAL-51 Prolif Ymin came out for O=C1CC[C@H](N2Cc3cc(Cn4ncc5c(-c6ncc(C(F)(F)F)cc6Cl)cc(N6CC(O)C6)nc54)ccc3C2=O)C(=O)N1 [Example 113] on CAL-51 cells?
Output: 38.05

Task: Provide value of CAL-51 Prolif Ymin for this record tested with CAL-51 cells: O=C1CCC(N2Cc3cc(Cn4cnc5c(-c6ccc(C(F)(F)F)cc6Cl)cc(N6CC(F)C6)nc54)ccc3C2=O)C(=O)N1 (stereo not shown) [Example 19]
Output: 23.48

Task: Query CAL-51 Prolif Ymin on CAL-51 cells for CCOc1ccc(-c2cc(N3CC(F)C3)nc3c2cnn3Cc2ccc3c(c2)CN([C@H]2CCC(=O)NC2=O)C3=O)c(C)c1 [Example 39]
Output: 28.13

Task: Record lookup: for CAL-51 cells, what CAL-51 Prolif Ymin belongs to Cc1nc2c(-c3ncc(C(F)(F)F)cc3Cl)cc(N3CC(F)C3)nc2n1Cc1ccc2c(c1)CN(C1CCC(=O)NC1=O)C2=O (stereo not shown) [Example 21] ?
Output: 23.08

Task: Request - read-out CAL-51 Prolif Ymin | tested on CAL-51 cells | compound C[C@]1(O)CCN(c2nc3c(cnn3Cc3ccc4c(c3)CN([C@H]3CCC(=O)NC3=O)C4=O)c(-c3ncc(C(F)(F)F)cc3Cl)c2F)C1 [Example 140]
Output: 29.76

Task: Could you share what CAL-51 Prolif Ymin was measured for O=C1CCC(N2Cc3cc(Cn4ncc5c(-c6ncc(C(F)F)cc6Cl)cc(N6CC(F)C6)nc54)ccc3C2=O)C(=O)N1 (stereo not shown) [Example 43] , tested on CAL-51 cells?
Output: 51.95

These measurements were taken from patent US20260078119A1.
